System: Aeromonas allosaccharophila
experimental_details: Ratio of Kcat to Km for Aeromonas allosaccharophila AL-1 beta-lactamase PER2
measured_parameter: kcat/Km (M⁻¹ s⁻¹)
The response must be a number in M⁻¹ s⁻¹ with no trailing unit.

A selection of reference data follows.
| molecule | kcat/Km (M⁻¹ s⁻¹) |
| --- | --- |
| CCN1CCN(C(=O)N[C@@H](C(=O)N[C@@H]2C(=O)N3[C@@H]2SC(C)(C)[C@@H]3C(=O)O)c2ccccc2)C(=O)C1=O [PIPERACILLIN] | 200000 |
| CC(C)(O/N=C(\C(=O)N[C@@H]1C(=O)N2C(C(=O)[O-])=C(C[n+]3ccccc3)CS[C@H]12)c1csc(N)n1)C(=O)O [CEFTAZIDIME] | 430000 |

Value (kcat/Km, Aeromonas allosaccharophila) for record CO/N=C(\C(=O)N[C@@H]1C(=O)N2C(C(=O)[O-])=C(C[N+]3(C)CCCC3)CS[C@H]12)c1csc(N)n1 = 20000

###

Test system: Escherichia coli
experimental_details: Antimicrobial activity against Escherichia coli DH10B harboring recombinant Aeromonas allosaccharophila AL-1 beta-lactamase PER2 by agar dilution method
Type: functional
condition_details: K-12 DH10B
measured_parameter: MIC

| molecule_smiles | tested_on | meas_value |
| --- | --- | --- |
| C[C@H]1[C@H](NC(=O)/C(=N\OC(C)(C)C(=O)O)c2csc(N)n2)C(=O)N1S(=O)(=O)O | Escherichia coli | > 256 µg/mL |
| CC(C)(O/N=C(\C(=O)N[C@@H]1C(=O)N2C(C(=O)[O-])=C(C[n+]3ccccc3)CS[C@H]12)c1csc(N)n1)C(=O)O | Escherichia coli | > 256 µg/mL |

We now examine a further compound.
Value of MIC reported for the compound CC1(C)S[C@@H]2[C@H](NC(=O)[C@H](C(=O)O)c3ccsc3)C(=O)N2[C@H]1C(=O)O is > 256 µg/mL
